IC50 reference
Tested on: Human FP Receptor (Homo sapiens (Human), UniProt P43088)
Sequence (P43088 whole entry): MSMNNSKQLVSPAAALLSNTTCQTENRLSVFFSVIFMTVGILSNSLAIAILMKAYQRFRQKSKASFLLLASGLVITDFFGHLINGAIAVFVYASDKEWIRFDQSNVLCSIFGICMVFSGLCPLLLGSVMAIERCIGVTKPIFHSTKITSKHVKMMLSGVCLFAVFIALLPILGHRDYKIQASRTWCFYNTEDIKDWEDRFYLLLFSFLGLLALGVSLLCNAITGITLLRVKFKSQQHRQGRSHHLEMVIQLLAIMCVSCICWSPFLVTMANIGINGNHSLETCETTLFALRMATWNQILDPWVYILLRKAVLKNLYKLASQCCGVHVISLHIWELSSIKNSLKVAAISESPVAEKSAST
Procedure summary: In vitro test of inhibition of human FP receptor activity, variant B-1A (PGF2α-induced calcium flux in FP-expressing CHEM1 cells)
Assay type: cell-based
Assay conditions: calcium flux induced by 3 nM PGF2α, Fluo-8, some mean values from multiple determinations

O=C(O)c1ccc(NC(=O)c2c(C(F)(F)F)c(-c3ccccc3)nc3ccc(Br)cc23)c(F)c1 [Example 57] = 437 nM
Cc1c(-c2ccccc2)nc2ccc(Br)cc2c1C(=O)Nc1ccc(C(=O)O)cc1F [Example 50] = 37 nM

Inquiry: Bench note: what IC50 did Cc1c(-c2ccccc2)nc2ccc(Br)cc2c1C(=O)Nc1ccc(C(N)=O)cc1 [Example 47] show?
Reply text: 197 nM

Inquiry: Report IC50 for COc1cc(C(=O)O)ccc1NC(=O)c1c(C)c(-c2ccccc2)nc2ccc(Br)cc12 [Example 21] please.
Reply text: 204 nM

Inquiry: State the recorded IC50 for this entry: Cc1c(-c2ccccc2)nc2ccc(Br)cc2c1C(=O)Nc1cc(F)c(C(=O)O)cc1F [Example 66]
Reply text: 282 nM

Inquiry: Tell me the measured IC50 of O=C(O)c1ccc(NC(=O)c2c(CF)c(-c3ccccc3)nc3ccc(Br)cc23)c(F)c1 [Example 37] , please.
Reply text: 39 nM

Inquiry: Which measured IC50 value corresponds to COCS(=O)(=O)c1cc(C(=O)O)ccc1NC(=O)c1c(C)c(-c2ccccc2)nc2ccc(Br)cc12 [Example 60] ?
Reply text: 27 nM

Inquiry: I am curious: what IC50 value has been reported for Cc1nc(C(=O)O)ccc1NC(=O)c1c(C)c(-c2ccccc2)nc2ccc(Br)cc12 [Example 5] ?
Reply text: 905 nM

Recorded values, source patent US10189788B2.
